Tested on: HIV-1JR-FL
Format: cell-based
experimentalEndpoint: Infectivity 10 μg/mL: relative percent of HIV infectivity compared to WT HD5 (%)
Use % as the unit, but write only the number.

Which Infectivity 10 μg/mL: relative percent of HIV infectivity compared to WT HD5 value belongs to S15A-HD5: HD5 mutant S15A, chemically synthesized (peptide, UniProt Q01523 20-94, looked up, variant S15A, Defensin-5) Defensin alpha 5: ESLQERADEATTQKQSGEDNQDLAISFAGNGLSALRTSGSQARATCYCRTGRCATREALSGVCEISGRLYRLCCR ?
166
